The reported measurements were obtained from ChEMBL document CHEMBL3988442.

Target: Sialic acid-binding Ig-like lectin 9 (Homo sapiens) (UniProt Q9Y336)
Sequence (Q9Y336 whole entry): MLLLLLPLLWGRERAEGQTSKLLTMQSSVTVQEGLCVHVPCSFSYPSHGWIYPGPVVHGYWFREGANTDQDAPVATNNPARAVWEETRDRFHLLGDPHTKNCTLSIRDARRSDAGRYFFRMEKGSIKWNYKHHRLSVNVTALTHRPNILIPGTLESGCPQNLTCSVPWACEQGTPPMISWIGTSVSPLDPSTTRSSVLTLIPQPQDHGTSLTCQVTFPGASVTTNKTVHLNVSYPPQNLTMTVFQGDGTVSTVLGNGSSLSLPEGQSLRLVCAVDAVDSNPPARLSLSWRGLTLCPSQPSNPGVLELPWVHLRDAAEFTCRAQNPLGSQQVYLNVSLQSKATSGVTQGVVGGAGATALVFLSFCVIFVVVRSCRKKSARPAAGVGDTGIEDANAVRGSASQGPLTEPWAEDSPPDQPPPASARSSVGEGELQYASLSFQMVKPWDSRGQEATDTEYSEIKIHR
Experiment: Hs-Siglec9 ALPHAscreen SOP 20170721
Parameters: scale not given: direction of the effect not stated beside the values
Conditions: 10 µM
recorded_endpoint: Percent Effect (%)

• CC(NC(=O)CCOc1ccccc1Cl)c1nnc2n1CCC2 (stereo not given) = -0.604
• COCCN(C)C(=O)Nc1ccc2c(ccn2CCOC)c1 = 0.86
• O=C(Nc1nc2c(s1)CN(S(=O)(=O)C1CC1)CC2)c1c(F)cccc1F = -7.6
• CCn1cc(CN2CC3CCCN3C[C@H]2C)c(C)n1 (stereo not given in full) = -8.58
• Cc1cccnc1NC(=O)NC(C)Cn1cccn1 (stereo not given) = 3.8
• CC(=O)c1cc(CC(=O)NCc2ccc(CN(C)C)cc2)cs1 = 9.94
• Cc1nccn1CC1CCCN1S(=O)(=O)Cc1ccon1 (stereo not given) = -6.85
• CN(Cc1ccccc1)CC1(O)CCCN(CC(C)(C)C)C1=O (stereo not given) = 18.9
• CN(C)C(=O)N1CCN(C(=O)CCc2ccccc2)[C@H]2CS(=O)(=O)C[C@H]21 = 6.47
• Cc1nn(C)c(C)c1C1CCCN1C(=O)c1ccc(CN(C)C)cc1 (stereo not given) = -4.88
• O=C(Nc1cnccn1)[C@H]1COC[C@H]2CN(C3CCCC3)C[C@H]21 = 0.701
• CCn1cnnc1CNC(=O)N1CCN(Cc2ccccc2)CC1 = -6.22
• CCC(C(=O)NCc1ccncc1)N(c1ccc(OC)cc1)S(C)(=O)=O (stereo not given) = 14
• Cn1cc(N2CCC3(CCN(Cc4nccs4)C3)C2=O)cn1 (stereo not given) = -6.07
• COc1ncccc1NC(=O)N1CCC(CNC(C)=O)CC1 = 4.72
• CCOc1cc(/C=C/c2ncc(C(=O)O)s2)ccc1O = 0.0396
• Cc1ccc(NC2CCN(C(=O)c3cccn3C)CC2)nn1 = 19.7
• CCn1nc2c(cc1=O)CN(Cc1nc3ccccc3c(=O)[nH]1)CC2 = -1.63
• Cc1nc(CN2CCC(N(C)Cc3noc(C(C)C)n3)C2)cs1 (stereo not given) = 5.3
• CN(C)C(=O)CNC(=O)c1ccc(Cl)cc1F = -6.12
• Cn1ncc2c(=O)[nH]c(CN3CCCC3CC3CCCCC3)nc21 (stereo not given) = 4.78
• CC(=O)N1CCCCC1c1nc(N)ncc1-c1ccccc1 (stereo not given) = -4.89
• CC(CNC(=O)Nc1cn[nH]c1)N1CCc2ccccc2C1 (stereo not given) = -3.09
• CCN1CCOC(CNCc2ccccn2)C1 (stereo not given) = 4.04
• OC(CN1CCN(Cc2nnc(C3CC3)o2)CC1)c1ccccc1 (stereo not given) = 15.1

* * *

Molecular target: Proteasome subunit beta (Trypanosoma cruzi)
Sequence (whole entry): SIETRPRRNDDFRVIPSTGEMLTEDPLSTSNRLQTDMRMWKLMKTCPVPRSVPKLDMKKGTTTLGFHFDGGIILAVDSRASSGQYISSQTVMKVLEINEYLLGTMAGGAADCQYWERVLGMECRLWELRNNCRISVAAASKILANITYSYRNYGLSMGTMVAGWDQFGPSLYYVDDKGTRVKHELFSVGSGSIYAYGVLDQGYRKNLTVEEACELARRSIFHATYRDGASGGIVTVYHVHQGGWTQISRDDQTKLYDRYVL
Test: Trypanosoma cruzi proteasome chymotrypsin-like activity (TcProtChymo) assay. Also: in the data most compounds retested in dose-response had high values.
Format: functional
Parameters: scale not given: direction of the effect not stated beside the values
Details: 9.37 µM
Assign labels as follows, please: MET for Percent Effect below 10%; NOT MET for Percent Effect equal to or exceeding 10%.

* Cc1nc(C)n(C2CCCN(C(=O)c3cc4ccccc4n3C)C2)n1 (stereo unspecified) | MET
* CC(NC(=O)NCc1ccc(Cl)cc1)c1ccccn1 (stereo unspecified) | NOT MET
* Cc1cccc(CN(Cc2ccc(C)o2)C2CC(C)(C)NC(C)(C)C2)n1 | NOT MET
* O=C(c1cccc2[nH]ncc12)N1CCCC1c1noc(C2CC2)n1 (stereo unspecified) | MET
* Cn1cccc1C(=O)N1CCc2ncnc(C3CC3)c2CC1 | NOT MET

* * *

Tested on: Trypanosoma cruzi
Experiment: Trypanosoma cruzi phosphomannomutase and mannose-1-phosphate guanylyltransferase assay
Format: functional
Set-up: scale not given: direction of the effect not stated beside the values
Details: 10 µM
# Lookup of reported Percent Effect keyed by entry
recorded_endpoint: Percent Effect (%)

* Cc1ccc(NC2CCN(C(=O)CCNS(C)(=O)=O)CC2)nn1 | -0.279
* Cc1nc2ccnn2c(C)c1CCC(=O)N1CCN(C2CC2)CC1 | -7.38
* Cc1cnn(CC2CCCN2Cc2cc(=O)n3cccc(C)c3n2)c1 (stereo not given) | 6.75
* CN(Cc1ncc[nH]1)CC(c1cccs1)N1CCOCC1 (stereo not given) | 4.92
* Cc1nc(C)n(CC2CCCN2CCCc2ccccc2)n1 (stereo not given) | 1.96
* CN(C)c1cc(C(=O)NCCc2nnc(-c3ccco3)[nH]2)ccn1 | -2.63
* Cc1ccc(N2CCCC(NCc3ccsc3)C2)nn1 (stereo not given) | -6.7
* O=C(C1CCCc2[nH]ncc21)N1CCCCCC1 (stereo not given) | -2.64
* Cc1cc(S(=O)(=O)NCc2cccc(C(=O)N3CCCC3)c2)c(C)s1 | 4.21
* CCOc1ncccc1NC(=O)N1CCc2ccccc2C1 | -2.14
* CCN(CCn1cccn1)Cc1nc(-c2cccs2)oc1C | 0.486
* Cc1ccccc1CSc1nc(N)cc(N2CC[C@@H](O)C2)n1 | 7.33
* CNC(=O)C1Cn2ccnc2C2(CCN(Cc3cccc(C)n3)CC2)O1 (stereo not given) | -6.35
* O=C(c1ccc[nH]1)N1CCN(CC2CCOc3ccccc3C2)CC1 (stereo not given) | 1.07
* Cc1cc(C)n(CC2CCCCN2CC(=O)Nc2nncs2)n1 (stereo not given) | 7.69
* COC(=O)CCC(=O)N1CCC2(CN(Cc3cccc(F)c3)C2)C1 | 1.54
* CCOCCN1CCN(Cc2nc(C3CC3)no2)CC1CC (stereo not given) | 10.4
* COc1ccc(-c2nc(CN3CCN(CCO)CC3)co2)cc1 | 8.8
* CCc1nc(CCNC(=O)Nc2ccc(C(=O)NC)cc2C)cs1 | -3.8
* Cc1ccc(NC(=O)NC(C)c2nc[nH]n2)cc1 (stereo not given) | -1.86
* CCOCC1CN(S(C)(=O)=O)Cc2cnn(C)c21 (stereo not given) | 5.79
* CCn1cc(NC(=O)C2CCN(Cc3ccccc3C#N)CC2)cn1 | -3.79
* Cc1cc(C(C)C(=O)N2CCCN(Cc3cscn3)CC2)c(C)o1 (stereo not given) | 1.5
* FC1(F)CCN(Cc2cccnc2)CC12CCN(c1ccccn1)C2 (stereo not given) | -4.99
* Cc1ccsc1C(=O)N1CC(C(=O)N2CCOCC2)C2(CCOCC2)C1 (stereo not given) | -8.38

* * *

# Lookup of reported Percent Effect keyed by entry
Molecular target: Arginase-2, mitochondrial (Homo sapiens) (UniProt P78540)
Sequence (whole entry): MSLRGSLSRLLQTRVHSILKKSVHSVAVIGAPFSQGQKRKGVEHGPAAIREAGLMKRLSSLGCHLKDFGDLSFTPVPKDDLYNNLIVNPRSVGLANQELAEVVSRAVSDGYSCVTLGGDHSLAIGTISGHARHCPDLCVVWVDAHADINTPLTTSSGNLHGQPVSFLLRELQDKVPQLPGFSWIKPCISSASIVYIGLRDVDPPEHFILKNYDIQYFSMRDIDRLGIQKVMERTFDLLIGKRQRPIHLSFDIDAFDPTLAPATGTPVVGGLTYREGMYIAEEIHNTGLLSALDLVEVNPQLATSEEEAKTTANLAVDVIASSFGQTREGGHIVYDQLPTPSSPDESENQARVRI
Experiment: in vitro enzyme assay to detect the production of urea directly proportional to the activity of Arginase II; also: in the data most compounds retested in dose-response had high values
Format: functional
Set-up: scale not given: direction of the effect not stated beside the values
Conditions: 33.3 µM
recorded_endpoint: Percent Effect (%)

* Cc1scc(C(=O)N2CCC3(CC(=O)NC3=O)C2)c1-c1ccccc1 (stereo unspecified) | 2.86
* COc1ccc(Cl)cc1C(=O)N1CCCC(n2nc(C)nc2C)C1 (stereo unspecified) | -3.8
* Cc1ccsc1CNC(=O)Cc1c(C)nc2c(c1C)c(=O)[nH]n2C | 2.32
* O=C(NCc1ccco1)c1nn(C2CCS(=O)(=O)C2)c2c1CCCC2 (stereo unspecified) | -3.55
* Cn1ncc2c1CN(Cc1cccnc1)CC2COCC1CC1 (stereo unspecified) | 4.79
* CC(C)n1ncc2c1NC(=O)CSC2C(C)(C)C (stereo unspecified) | -3.7
* O=S1(=O)C[C@@H]2[C@H](C1)N(Cc1cc(Cl)cc(Cl)c1)CCN2CC1CC1 | 1.56
* O=C(C1CCCc2[nH]ncc21)N1CCCCCC1 (stereo unspecified) | -1.24
* O=C(NCc1ccco1)[C@@H]1CCO[C@@H]2CCN(c3ccncn3)C[C@H]21 | -56.5
* OC(COCc1cccs1)CN1CCC(c2ccn[nH]2)CC1 (stereo unspecified) | 3.42
* Cc1nc(CN2C[C@@H]3CN(C(=O)c4cccn4C)C[C@@H]3C2=O)cs1 | -0.955
